Assay: Antiproliferative activity against Con A-induced BALB/c mouse splenocytes after 48 hrs by CCK-8 method relative to control
Assay type: functional, cell-based
Conditions: Splenocyte
PROPERTY_LABEL: pIC50
In textbook form, pIC50 equals minus log to base ten of the concentration in mol/L.

| SMILES_NOTATION | pIC50 |
| --- | --- |
| CCCCCCCCCN1[C@H](CO)[C@H](O)[C@H](O)[C@@H](O)[C@H]1CCl | 4.66 |

Pending compound:
(Q) Look up pIC50: `CCCCCCCCCN1[C@H](CCl)[C@H](O)[C@@H](O)[C@@H](O)[C@@H]1CO`
(A) 4.35
